TGT: 15-PGDH/HPGD (Homo sapiens (Human))
Sequence (P15428 whole entry): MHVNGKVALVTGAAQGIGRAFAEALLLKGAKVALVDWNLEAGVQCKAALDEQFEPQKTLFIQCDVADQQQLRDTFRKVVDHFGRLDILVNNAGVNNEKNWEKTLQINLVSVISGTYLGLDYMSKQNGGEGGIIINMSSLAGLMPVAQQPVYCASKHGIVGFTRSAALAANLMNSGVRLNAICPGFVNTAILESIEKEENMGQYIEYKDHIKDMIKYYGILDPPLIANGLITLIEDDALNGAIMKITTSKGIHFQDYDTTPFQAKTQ
METHOD: hPGDH inhibitor screening biochemical assay
EXPERIMENTAL CONTEXT: read-out: hPGDH: Average IC50
Quick reference for IC50 among some compounds

Some entries whose results are on file:
In [3]: df
Out[3]:
                                   compound                                  tgt     measured
0  COc1ccc(-n2c(C3CC3)nc3cc(C(=O)N4CCCCC4)ccc32)cc1 [MF-PGDH-021]  15-PGDH/HPGD (Homo sapiens (Human))  0.1 to 1 µM
1  Cc1c(C(=O)N2CCC(F)CC2)cnc2c1ccn2-c1cnccn1 [MF-DH-150]  15-PGDH/HPGD (Homo sapiens (Human))     < 0.1 µM
2  CCNC(=O)c1ccc(-n2ccc3cc(C(=O)N4CCC(F)(F)CC4)cnc32)cc1 [MF-DH-418]  15-PGDH/HPGD (Homo sapiens (Human))     < 0.1 µM
3  N#Cc1cncc(-n2ccc3cc(C(=O)N4CCCCC4)cnc32)c1 [MF-DH-364]  15-PGDH/HPGD (Homo sapiens (Human))     < 0.1 µM
4  Cc1cncc(-n2ccc3cc(C(=O)N4CCCCC4)cnc32)c1 [MF-DH-320]  15-PGDH/HPGD (Homo sapiens (Human))     < 0.1 µM

[Q] State its IC50: NC[C@@H]1CN(c2cncc(-n3ccc4cc(C(=O)N5CCC(F)(F)CC5)cnc43)c2)C(=O)O1 [MF-DH-479]
[A] < 0.1 µM

[Q] Dear colleague, please send me the reported IC50 for COc1ccc(-n2cc(C)c3cc(C(=O)N4CCC(F)CC4)ccc32)cc1 [MF-DH-190] when you can.
[A] < 0.1 µM

[Q] Identify IC50 associated with the compound N#Cc1cccc(-n2ccc3cc(C(=O)N4CCC(F)CC4)cnc32)c1 [MF-DH-344]
[A] < 0.1 µM

[Q] Supply measured IC50 of CC(C)(C)CNC(=O)c1ccc(-n2ccc3cc(C(=O)N4CCC(F)(F)CC4)cnc32)cn1 [MF-DH-438] in your reply.
[A] < 0.1 µM

[Q] Give IC50 for O=C(c1ccc2c(c1)ncn2-c1cccc(Cl)c1)N1CCC(F)C1 (stereo not drawn) [MF-PGDH-048]
[A] 0.1 to 1 µM
